B1: TRIM39 (parent)
chain: YPCVLATEGFTSGRHYWEVEVGDK

Variants of: B1
Assay: protein stability index of a GFP-peptide fusion (GPS, HEK-293T) (PSI 1-6); higher = more stable;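 note: lentivirally expressed fusions sorted by FACS into six bins by GFP to DsRed ratio, PSI derived from sequencing read proportions per bin multiplied by bin number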
Conditions: c terminus: a fixed tail appended
Parameter threshold = 2. Response is satisfied when protein stability index meets or exceeds it, else not satisfied.

Check out these entries, answers already filled in.
>>> qualitative_label("YPCVAATEGFTSGRHYWEVEVGDK [L5A]")
"not satisfied"
>>> qualitative_label("YPCVLATEGRTSGRHYWEVEVGDK [F10R]")
"satisfied"
>>> qualitative_label("YPCVLATEGFTSYRHYWEVEVGDK [G13Y]")
"not satisfied"
>>> qualitative_label("YRCVLATEGFTSGRHYWEVEVGDK [P2R]")
"not satisfied"

Inquiry: Assess whether reported protein stability index for YPCVLATEGFTSGRHYWEVEVGDE [K24E] sits at 2 or higher.
Reply text: satisfied

Inquiry: Same read-out for YPCVLATEGFTSGRHYWEVEVTDK [G22T] ?
Reply text: not satisfied

Inquiry: Same read-out for YPCVLATEFFTSGRHYWEVEVGDK [G9F] ?
Reply text: satisfied

Inquiry: Same read-out for YPCVLATEGFTSGRHEWEVEVGDK [Y16E] ?
Reply text: satisfied
